Values were extracted from ChEMBL document CHEMBL4325912.

Experiment: Half life in human hepatocytes
Assay type: ADME, cell-based, Hepatocyte
result type: half-life (h)

INSERT INTO results (compound, result_type, experimental_value) VALUES
  ('COc1ccc2[nH]c(C)c(CC(=O)N3CCN(CC4CCOC4)CC3c3ncc(-c4ccc5ccccc5c4)[nH]3)c2c1 (mixture of isomers)', 'half-life', 2.4);

* * *

Reported CC50 at 72 h values for the following compounds.
Assay: Cytotoxicity against human HeLa cells assessed as reduction in cell viability after 72 hrs by celltiter glo assay
Format: cell-based
result type: CC50 at 72 h

INSERT INTO assay_data (compound, experimental_value) VALUES
  ('COc1ccc2[nH]c(C)c(CC(=O)N3CCN(CC4CC4)CC3c3ncc(-c4ccc5ccccc5c4)[nH]3)c2c1 (stereo not drawn)', '> 25 µM'),
  ('CCC(=O)CCCN1CCN(C(C)=O)C(c2ncc(-c3ccc4ccccc4c3)[nH]2)C1 (stereo not drawn)', '> 32 µM'),
  ('CCC(=O)CCCN1CCN(C(=O)Cc2c(C)[nH]c3ccc(OC)cc23)C(c2nnc(-c3ccc4ccccc4c3)o2)C1 (stereo not drawn)', '> 25 µM'),
  ('CCC(=O)CCCN1CCN(C(=O)Cc2c[nH]c3ccccc23)[C@H](c2ncc(-c3ccc4ccccc4c3)[nH]2)C1', '> 25 µM'),
  ('CCC(=O)CCCN1CCN(Cc2ccccc2)C(c2ncc(-c3ccc4ccccc4c3)[nH]2)C1 (stereo not drawn)', '14.7 µM'),
  ('CCC(=O)CCCN1CCN(S(=O)(=O)c2ccccc2)C(c2ncc(-c3ccc4ccccc4c3)[nH]2)C1 (stereo not drawn)', '> 25 µM'),
  ('COc1ccc2[nH]c(C)c(CC(=O)N3CCN(CC4CCOC4)CC3c3ncc(-c4ccc5ccccc5c4)[nH]3)c2c1 (mixture of isomers)', '> 25 µM'),
  ('CCC(=O)CCCN1CCN(C(=O)Nc2ccccc2)C(c2ncc(-c3ccc4ccccc4c3)[nH]2)C1 (stereo not drawn)', '> 25 µM');

* * *

Reported CC50 at 72 h values for the following molecules.
Assay: Cytotoxicity against human HeLa cells assessed as reduction in cell viability after 72 hrs by celltiter glo assay
Type: cell-based
result type: CC50 at 72 h (µM)

INSERT INTO results (molecule, result_type, qualifier_sign, experimental_value) VALUES
  ('CCC(=O)CCCN1CCN(C(=O)Cc2c(C)[nH]c3ccc(OC)cc23)C(c2ncc(-c3ccc4ccccc4c3)[nH]2)C1 (centres undefined)', 'CC50 at 72 h', '=', 12.3),
  ('CCC(=O)CCCN1CCN(C(=O)c2ccccc2)C(c2ncc(-c3ccc4ccccc4c3)[nH]2)C1 (centres undefined)', 'CC50 at 72 h', '>', 32),
  ('CCC(=O)CCCN1CCN(C(=O)Cc2c(C)[nH]c3ccc(OC)cc23)C(c2ncc(-c3ccc4ccccc4c3)o2)C1 (centres undefined)', 'CC50 at 72 h', '=', 20.6),
  ('CCC(=O)CCC(=O)N1CCN(C(=O)Cc2c(C)[nH]c3ccc(OC)cc23)C(c2ncc(-c3ccc4ccccc4c3)[nH]2)C1 (centres undefined)', 'CC50 at 72 h', '>', 25);

* * *

System: Trypanosoma cruzi
Assay: Antiparasitic activity against Trypanosoma cruzi
Format: functional, organism-based
result type: EC50 (µM)

INSERT INTO assay_data (compound, result_type, experimental_value) VALUES
  ('COc1ccc2[nH]c(C)c(CC(=O)N3CCN(CC4CCOC4)CC3c3ncc(-c4ccc5ccccc5c4)[nH]3)c2c1 (mixture of isomers)', 'EC50', 8.12);
